- Tested on: U2OS
- Assay: Multiplex assay against U2OS
- Assay type: toxicity, cell-based
- Condition description: human, 12 h, 1 µM, compound concentration 1 uM, replicate 1
Measured metric: Population Apoptotic (%)
Write the number in % without appending the unit.

Worked examples follow.
O=C(NCCN1CCC(n2c(=O)[nH]c3cc(Cl)ccc32)CC1)c1ccc(F)cc1 [HALOPEMIDE]; 95
COC[C@@H](c1ccc(C(F)(F)F)cc1)N1CCN(C2(C)CCN(C(=O)c3c(C)ncnc3C)CC2)C[C@@H]1C.O=C(O)/C=C\C(=O)O [VICRIVIROC MALEATE]; 82
Cc1cccc(NC(=O)CN2CCC(c3ccccn3)CC2)c1.Cl.Cl; 90

Task item: # query: Population Apoptotic (%) of entry `CCCCC(=O)N(Cc1ccc(-c2ccccc2-c2nnn[nH]2)cc1)[C@H](C(=O)O)C(C)C`
Reply: 85

Task item: # query: Population Apoptotic (%) of entry `NCCc1cn(S(=O)(=O)c2c(Cl)nc3sccn23)c2ccccc12.O=C(O)C(=O)O`
Reply: 66

Task item: # query: Population Apoptotic (%) of entry `CC(C)c1noc(N2CCC(COc3ccc(-c4ccc(S(C)(=O)=O)cc4)nc3)CC2)n1`
Reply: 72

Task item: # query: Population Apoptotic (%) of entry `CC(/C=C1\SC(=S)N(CCCC(=O)Nc2ccc(C(=O)O)c(O)c2)C1=O)=C\c1ccccc1`
Reply: 94

Task item: # query: Population Apoptotic (%) of entry `Cc1cnc(-c2cc(N3CCN(C(=O)CCS(C)(=O)=O)CC3)ncc2Cl)c(C)c1`
Reply: 86

###

Items are presented alongside their recorded Population Membrane Permeable-Phenotype (%).
- Tested on: HEK-293T
- Assay: Multiplex assay against HEK293T
- Type: toxicity, cell-based
- Condition description: human, 24 h, 10 µM, compound concentration 10 uM, replicate 1
Write the number in % without appending the unit.

Cc1noc(-c2ccc(-c3ccc(CC(=O)O)cc3)cc2)c1NC(=O)O[C@H](C)c1ccccc1Cl; 1
CC[C@@H](C)Nc1nc(C)nc2c(-c3ccc(OC)nc3C)c(C)nn12 [PEXACERFONT]; 1
CC(C)COc1ccc(CNC(=O)N(Cc2ccc(F)cc2)C2CCN(C)CC2)cc1 [PIMAVANSERIN]; 0
O=C(CCCc1ccccc1)Nc1nc2ccccc2c(=O)s1; 0
Cl.N=C(N)NC(=O)Cc1c(Cl)cccc1Cl [GUANFACINE HYDROCHLORIDE]; 0
CN1CCN(c2cc(-c3ccccc3)nc(N)n2)CC1; 0
CC(/C=C1\SC(=S)N(CCCC(=O)Nc2ccc(C(=O)O)c(O)c2)C1=O)=C\c1ccccc1; 0
NCCc1cn(S(=O)(=O)c2c(Cl)nc3sccn23)c2ccccc12.O=C(O)C(=O)O; 2

Task item: # query: Population Membrane Permeable-Phenotype (%) of entry `Cc1cnc(-c2cc(N3CCN(C(=O)CCS(C)(=O)=O)CC3)ncc2Cl)c(C)c1`
Reply: 0

Task item: # query: Population Membrane Permeable-Phenotype (%) of entry `CN(C)C(=O)Cn1cc(-c2ccc(-c3cncc4ccccc34)cc2)cn1`
Reply: 0

###

- Test system: U2OS
- Assay: Multiplex assay against U2OS
- Assay type: toxicity, cell-based
- Condition description: human, 24 h, 10 µM, compound concentration 10 uM, replicate 1
Measured metric: Population Tubulin-Different-Phenotype (%)

Worked examples follow.
O=C1[C@H](Cc2ccc(O)cc2)N2C(=O)CCN(C(=O)NCc3ccccc3)[C@H]2CN1Cc1cccc2ccccc12; 25%
CC(=O)Nc1cccc2c1c(Sc1ccc(Cl)cc1)c(C)n2CC(=O)O; 2%
COC[C@@H](c1ccc(C(F)(F)F)cc1)N1CCN(C2(C)CCN(C(=O)c3c(C)ncnc3C)CC2)C[C@@H]1C.O=C(O)/C=C\C(=O)O [VICRIVIROC MALEATE]; 2%
CCc1cc2cc(NS(=O)(=O)c3ccc(C#N)cc3)ccc2n(CC)c1=O; 1%

Next:
Task item: # query: Population Tubulin-Different-Phenotype (%) of entry `CC[C@@H](C)Nc1nc(C)nc2c(-c3ccc(OC)nc3C)c(C)nn12`
Reply: 4%

###

Items are presented alongside their recorded Population Normal (%).
- System: HEK-293T
- Assay: Multiplex assay against HEK293T
- Type: toxicity, cell-based
- Condition description: human, 24 h, 1 µM, compound concentration 1 uM, replicate 1
Write the number in % without appending the unit.

Worked examples follow.
CCc1cc2cc(NS(=O)(=O)c3ccc(C#N)cc3)ccc2n(CC)c1=O; 94
NCCc1cn(S(=O)(=O)c2c(Cl)nc3sccn23)c2ccccc12.O=C(O)C(=O)O; 93
CC(C)(C)c1cc(NC(=O)Nc2ccc(-c3cn4c(n3)sc3cc(OCCN5CCOCC5)ccc34)cc2)no1; 93

Task item: Requested read-out Population Normal (%), target or system HEK-293T, entry `CN[C@@H](C)C(=O)N[C@H](C(=O)N1CCC[C@H]1C(=O)Nc1snnc1-c1ccccc1)C1CCCCC1`
Reply: 95

Task item: Requested read-out Population Normal (%), target or system HEK-293T, entry `N#Cc1cc(F)cc(-c2nc(-c3ccc(F)cn3)no2)c1`
Reply: 93

###

- Test system: Fibroblast
- Assay: Multiplex assay against human fibroblast
- Type: toxicity, cell-based
- Condition description: 12 h, 1 µM, compound concentration 1 uM, replicate 2
Answer FALSE if Population Tubulin-Different-Phenotype (%) is under 50%, and TRUE if it is 50% or more.

Task item: Hi team, for `CN(C)C(=O)Cn1cc(-c2ccc(-c3cncc4ccccc34)cc2)cn1` , is the recorded Population Tubulin-Different-Phenotype (%) at or above 50%?
Reply: TRUE

Task item: Hi team, for `NCCc1cn(S(=O)(=O)c2c(Cl)nc3sccn23)c2ccccc12.O=C(O)C(=O)O` , is the recorded Population Tubulin-Different-Phenotype (%) at or above 50%?
Reply: TRUE

Task item: Hi team, for `N#Cc1cc(F)cc(-c2nc(-c3ccc(F)cn3)no2)c1` , is the recorded Population Tubulin-Different-Phenotype (%) at or above 50%?
Reply: FALSE

Task item: Hi team, for `COc1ccccc1N1CCN(C[C@@H](C(=O)NC(C)(C)C)c2ccccc2)CC1.Cl.Cl` , is the recorded Population Tubulin-Different-Phenotype (%) at or above 50%?
Reply: FALSE

Task item: Hi team, for `CC(/C=C1\SC(=S)N(CCCC(=O)Nc2ccc(C(=O)O)c(O)c2)C1=O)=C\c1ccccc1` , is the recorded Population Tubulin-Different-Phenotype (%) at or above 50%?
Reply: TRUE

Task item: Hi team, for `N#Cc1c(Oc2cccc(OS(=O)(=O)CCCC(F)(F)F)c2)cccc1C(F)(F)F` , is the recorded Population Tubulin-Different-Phenotype (%) at or above 50%?
Reply: TRUE

Task item: Hi team, for CN[C@@H](C)C(=O)N[C@H](C(=O)N1CCC[C@H]1C(=O)Nc1snnc1-c1ccccc1)C1CCCCC1 [GDC-0152] , is the recorded Population Tubulin-Different-Phenotype (%) at or above 50%?
Reply: TRUE

Task item: Hi team, for `CCCOc1ccc2[nH]cc(C3=CCNCC3)c2n1.Cl` , is the recorded Population Tubulin-Different-Phenotype (%) at or above 50%?
Reply: FALSE

Task item: Hi team, for Cl.N=C(N)NC(=O)Cc1c(Cl)cccc1Cl [GUANFACINE HYDROCHLORIDE] , is the recorded Population Tubulin-Different-Phenotype (%) at or above 50%?
Reply: FALSE

###

Items are presented alongside their recorded Population Fragmented Nuclei (%).
- Test system: HEK-293T
- Assay: Multiplex assay against HEK293T
- Type: toxicity, cell-based
- Condition description: human, 24 h, 1 µM, compound concentration 1 uM, replicate 1
Write the number in % without appending the unit.

Worked examples follow.
CCCCC1=NC2(CCCC2)C(=O)N1Cc1ccc(-c2ccccc2-c2nnn[nH]2)cc1; 9
Cc1noc(-c2ccc(-c3ccc(CC(=O)O)cc3)cc2)c1NC(=O)O[C@H](C)c1ccccc1Cl; 10
CCCOc1ccc2[nH]cc(C3=CCNCC3)c2n1.Cl; 10
Cl.N=C(N)NC(=O)Cc1c(Cl)cccc1Cl [GUANFACINE HYDROCHLORIDE]; 8
O=C1[C@H](Cc2ccc(O)cc2)N2C(=O)CCN(C(=O)NCc3ccccc3)[C@H]2CN1Cc1cccc2ccccc12; 7

Task item: # query: Population Fragmented Nuclei (%) of entry Cl.NCCc1ccc(O)c(O)c1 [DOPAMINE HYDROCHLORIDE]
Reply: 9

Task item: # query: Population Fragmented Nuclei (%) of entry `NCCc1cn(S(=O)(=O)c2c(Cl)nc3sccn23)c2ccccc12.O=C(O)C(=O)O`
Reply: 9

Task item: # query: Population Fragmented Nuclei (%) of entry `CC(C)(C)c1cc(NC(=O)Nc2ccc(-c3cn4c(n3)sc3cc(OCCN5CCOCC5)ccc34)cc2)no1`
Reply: 7

Task item: # query: Population Fragmented Nuclei (%) of entry `CC(C)COc1ccc(CNC(=O)N(Cc2ccc(F)cc2)C2CCN(C)CC2)cc1`
Reply: 9

Task item: # query: Population Fragmented Nuclei (%) of entry `CC(C)c1noc(N2CCC(COc3ccc(-c4ccc(S(C)(=O)=O)cc4)nc3)CC2)n1`
Reply: 8

Task item: # query: Population Fragmented Nuclei (%) of entry `N#Cc1c(Oc2cccc(OS(=O)(=O)CCCC(F)(F)F)c2)cccc1C(F)(F)F`
Reply: 10

Task item: # query: Population Fragmented Nuclei (%) of entry `CCc1cc2cc(NS(=O)(=O)c3ccc(C#N)cc3)ccc2n(CC)c1=O`
Reply: 8

Task item: # query: Population Fragmented Nuclei (%) of entry `Cc1onc(-c2ccccc2Cl)c1C(=O)N(C)c1ccc(Cl)cc1`
Reply: 9

Task item: # query: Population Fragmented Nuclei (%) of entry Cc1sc2c(c1C)C(c1ccc(Cl)cc1)=N[C@@H](CC(=O)NCCCCCCCCNC(=O)COc1cccc3c1C(=O)N(C1CCC(=O)NC1=O)C3=O)c1nnc(C)n1-2 (stereo not given in full)
Reply: 7

Task item: # query: Population Fragmented Nuclei (%) of entry `O=C(CCCc1ccccc1)Nc1nc2ccccc2c(=O)s1`
Reply: 8

Task item: # query: Population Fragmented Nuclei (%) of entry `CC[C@@H](C)Nc1nc(C)nc2c(-c3ccc(OC)nc3C)c(C)nn12`
Reply: 8

Task item: # query: Population Fragmented Nuclei (%) of entry `CN(C)C(=O)Cn1cc(-c2ccc(-c3cncc4ccccc34)cc2)cn1`
Reply: 10

Task item: # query: Population Fragmented Nuclei (%) of entry `CN1CCN(c2cc(-c3ccccc3)nc(N)n2)CC1`
Reply: 9

Task item: # query: Population Fragmented Nuclei (%) of entry `COc1ccccc1N1CCN(C[C@@H](C(=O)NC(C)(C)C)c2ccccc2)CC1.Cl.Cl`
Reply: 8

Task item: # query: Population Fragmented Nuclei (%) of entry `CN[C@@H](C)C(=O)N[C@H](C(=O)N1CCC[C@H]1C(=O)Nc1snnc1-c1ccccc1)C1CCCCC1`
Reply: 8

All values here come from ChEMBL document CHEMBL5058577.
